# Run Description: Therapeutic index, ratio of MTD for Sprague-Dawley rat to MCD for blood stage of Plasmodium berghei NK65
# Condition Info: read-out: TI
Quick rule for you: selectivity ratio at 60 or higher means Condition met, lower means Condition not met.

Molecule: CCO[C@H]1CCN[C@@H]1C(=O)Cn1cnc2cccc(F)c2c1=O
Cat: Condition met
--
Molecule: CC(C)O[C@H]1CCN[C@@H]1C(=O)Cn1cnc2cccc(C(F)(F)F)c2c1=O
Cat: Condition met
--
Molecule: C[C@H]1[C@H](OC(=O)CCC(=O)O)O[C@@H]2O[C@@]3(C)CC[C@H]4[C@H](C)CC[C@@H]1[C@@]24OO3 [ARTESUNATE]
Cat: Condition not met
--
Molecule: O=C(Cn1cnc2cccnc2c1=O)[C@H]1NCC[C@@H]1O
Cat: Condition met
--
Molecule: O=C(Cn1cnc2cccc(F)c2c1=O)[C@H]1NCC[C@@H]1O
Cat: Condition met
--
Molecule: O=C(Cn1cnc2ccccc2c1=O)[C@H]1NCC[C@@H]1O
Cat: Condition not met
--
Molecule: O=C(C[C@@H]1NCCC[C@H]1O)Cn1cnc2ccccc2c1=O
Cat: Condition not met
--
Molecule: O=C(Cn1cnc2cccnc2c1=O)[C@H]1NCC[C@@H]1OCc1ccccc1
Cat: Condition met
--
Molecule: O=C(Cn1cnc2ccncc2c1=O)[C@H]1NCC[C@@H]1O
Cat: Condition not met
